tested.on: Cytochrome P450 3A4 (Homo sapiens) (UniProt P08684)
Sequence (P08684 whole entry, looked up): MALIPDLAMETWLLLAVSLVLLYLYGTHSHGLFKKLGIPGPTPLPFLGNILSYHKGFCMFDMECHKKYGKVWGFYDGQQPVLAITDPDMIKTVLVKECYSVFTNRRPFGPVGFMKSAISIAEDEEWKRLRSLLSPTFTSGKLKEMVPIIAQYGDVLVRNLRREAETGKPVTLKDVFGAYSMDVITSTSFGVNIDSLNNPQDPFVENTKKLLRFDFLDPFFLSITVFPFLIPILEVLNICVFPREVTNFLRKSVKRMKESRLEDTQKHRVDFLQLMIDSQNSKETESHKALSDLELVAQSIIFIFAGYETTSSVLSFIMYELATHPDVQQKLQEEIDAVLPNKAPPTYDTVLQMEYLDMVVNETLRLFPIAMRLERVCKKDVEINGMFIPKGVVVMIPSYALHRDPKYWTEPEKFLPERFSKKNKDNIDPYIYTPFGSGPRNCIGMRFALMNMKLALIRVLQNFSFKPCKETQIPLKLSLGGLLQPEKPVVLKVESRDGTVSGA
assay.info: Cytochrome panel assay with activity outcomes
assay.setup: recombinant CYP, pro-luciferin dealkylation, luminescence, p450-cyp3a4; series mostly up to 57.1 µM
Screen size: about 16,000 compounds; about 5,100 (32%) were called active. Inconclusive results (about 25%) are left out. Calls come from the whole dose curve; as a rule, active = well fitted curve in the direction sought with a large enough effect; inconclusive = small, poorly fitted or top-dose-only effect, or effect the other way; inactive = no such curve, though single readings can be large or run the other way. Some of the results follow.
Outcomes you can answer with include only these: active, inactive

*Q* Identify the outcome logged in this assay for the molecule shown: CSc1c(-c2ccccc2)nc2ccccc2c1C(=O)O
*A* inactive

*Q* Identify the outcome logged in this assay for the molecule shown: CN(C)c1nc(-c2cccnc2)nc2ccccc12
*A* active

*Q* Identify the outcome logged in this assay for the molecule shown: COc1ccccc1CNc1ncncc1-c1ccccc1C(F)(F)F
*A* active

*Q* Identify the outcome logged in this assay for the molecule shown: O=C(N/N=C/c1ccco1)c1ccc(Br)o1
*A* inactive

*Q* Identify the outcome logged in this assay for the molecule shown: COC(=O)C1=C(NC(=O)c2cccs2)CCS1
*A* active

*Q* Identify the outcome logged in this assay for the molecule shown: NC[C@H](O)C1CCCCCCC1
*A* inactive

*Q* Identify the outcome logged in this assay for the molecule shown: CCCN(CCC)CCCNC(=O)c1ccc2c(c1)N(CC)C(=O)c1ccccc1S2=O (configuration not stated)
*A* inactive

*Q* Identify the outcome logged in this assay for the molecule shown: CN(C)c1nc(-c2ccccc2C(F)(F)F)nc2ccccc12
*A* inactive

*Q* Identify the outcome logged in this assay for the molecule shown: O=C(O)CCC(=O)CCC(=O)c1ccccc1
*A* inactive

*Q* Identify the outcome logged in this assay for the molecule shown: CC(C)N1CCC(=NNC(=O)c2ccc(Br)o2)CC1
*A* active

*Q* Identify the outcome logged in this assay for the molecule shown: COC(=O)c1c(NC(=O)C(C)(C)C)sc2c1C(C(=O)OC)CC2 (configuration not stated)
*A* inactive

*Q* Identify the outcome logged in this assay for the molecule shown: COc1ccc(CN(C(=O)Cc2cccs2)C(C(=O)NC2CCCC2)c2ccncc2)cc1 (configuration not stated)
*A* active

*Q* Identify the outcome logged in this assay for the molecule shown: COc1ccccc1Nc1nc(-c2sc(NC(=O)c3ccc([N+](=O)[O-])cc3)nc2C)cs1
*A* active

*Q* Identify the outcome logged in this assay for the molecule shown: COc1ccc2c(c1)c(CC(=O)O)c(C)n2C(=O)c1ccc(Cl)cc1
*A* inactive

*Q* Identify the outcome logged in this assay for the molecule shown: Cc1ccc(Nc2nc(-c3sc(NC(=O)c4ccc([N+](=O)[O-])cc4)nc3C)cs2)cc1
*A* active

*Q* Identify the outcome logged in this assay for the molecule shown: CN(C)/C=C/C(=O)c1ccc(F)cc1
*A* inactive

*Q* Identify the outcome logged in this assay for the molecule shown: CNc1nc(-c2ccc(N(C)C)cc2)nc2ccccc12
*A* active

*Q* Identify the outcome logged in this assay for the molecule shown: O=C(Cc1cccs1)N/N=C/C(Br)=C/c1ccccc1
*A* inactive

*Q* Identify the outcome logged in this assay for the molecule shown: CCOc1ccccc1Nc1nc(-c2sc(NC(=O)c3ccccc3)nc2C)cs1
*A* active

*Q* Identify the outcome logged in this assay for the molecule shown: O=C(/C=C\NCC(=O)c1ccccc1)c1ccc(F)cc1
*A* active

*Q* Identify the outcome logged in this assay for the molecule shown: O=C(/C=C\NCC(=O)c1ccccc1)c1ccccc1
*A* active

*Q* Identify the outcome logged in this assay for the molecule shown: CN(C)c1ccc(-c2nc(N(C)C)c3ccccc3n2)cc1
*A* active
